# run.description: Vapor-liquid equilibrium still, trichloroethylene-isobutanol azeotrope with extractive distillation agent
# Type: physicochemical
# condition: trichloroethylene from isobutanol, Table 5
Each entry below carries its recorded Relative Volatility.
measured.endpoint: Relative Volatility

OC1CCCCC1 [Cyclohexanol] | 2.4
CC(C)CCO [Isoamyl alcohol] | 1.9
CCCC(C)CO (centres unmarked) [2-Methyl-1-pentanol] | 2.2
CC(C)CCCCCO [Isooctanol] | 1.6
OCC1CCCO1 (centres unmarked) [Tetrahydrofurfuryl alcohol] | 2.4
CC(C)CCCO [Isohexyl alcohol] | 2.6
CC(C)CC(O)CC(C)C [Diisobutyl carbinol] | 1.6
OCCc1ccccc1 [Phenethyl alcohol] | 1.55
CCCCCCC(C)O (centres unmarked) [2-Octanol] | 2.7
CC(C)CC(C)O (centres unmarked) [4-Methyl-2-pentanol] | 2.7
CC1=CC(=O)CC(C)(C)C1 [Isophorone] | 1.6
CCCCCCCCCCO [n-Decanol] | 3.9
OCc1ccccc1 [Benzyl alcohol] | 2.0
CCCCCCCCCO [Nonyl alcohol] | 3.8

---

# run.description: Vapor-liquid equilibrium still, trichloroethylene-isobutanol azeotrope with extractive distillation agent
# Assay type: physicochemical
# condition: trichloroethylene from isobutanol, Table 5
Measured Relative Volatility of individual entries
measured.endpoint: Relative Volatility

CC(=O)CC(C)(C)O | 1.3
CCCCCCCCO | 1.3
CCCCCCCO | 1.95

---

# run.description: Vapor-liquid equilibrium still, trichloroethylene-2-butanol azeotrope with extractive distillation agent
# Format: physicochemical
# condition: trichloroethylene from 2-butanol, Table 7
measured.endpoint: Relative Volatility

CC(C)CC(O)CC(C)C | 1.35
CCCC(C)CO (stereo not shown) | 1.6
CC(C)CCCCCO | 1.7
OCC1CCCO1 (stereo not shown) [Tetrahydrofurfuryl alcohol] | 1.65
CCCCCCCO | 1.55
CC(=O)CC(C)(C)O | 1.45
CC(C)CCCCCCO | 1.35
CCCCCCCCO | 1.5
OCCCc1ccccc1 | 1.65
CCCCCCO | 2.6
CCC(C)(O)CC | 1.35
CCC(CC)CO | 1.85
CCCCC(CC)CO (stereo not shown) | 1.55

---

Measured Relative Volatility, listed per entry for reference.
# run.description: Vapor-liquid equilibrium still, t-butanol-trichloroethylene azeotrope with extractive distillation agent
# Format: physicochemical
# condition: trichloroethylene from t-butanol, Table 10
measured.endpoint: Relative Volatility

COCC(C)OC(C)=O (stereo not shown) [1-Methoxy-2-propanol acetate] | 1.65
CC(=O)OCC(C)C [Isobutyl acetate] | 1.4
CCCC(=O)CC | 1.55
CCCCCCOC(C)=O [Hexyl acetate] | 1.4
CCCC(C)=O | 1.9
CC(=O)CCC(C)C [5-Methyl-2-hexanone] | 1.3
CCCOC(C)=O [n-Propyl acetate] | 2.9
CCCCC(=O)OCC [Ethyl valerate] | 1.65
CC(=O)C(C)C | 1.3
CC(=O)CC(C)C [4-Methyl-2-pentanone] | 1.5
CCCC(=O)OCC(C)C [Isobutyl butyrate] | 1.65
CC(=O)CC(C)=O | 1.4
CCOC(=O)CC [Ethyl propionate] | 2.4
CCCCCOC(C)=O [n-Amyl acetate] | 1.7
COCC(C)O (stereo not shown) | 1.65
CCCCOC(C)=O [n-Butyl acetate] | 1.7
CC(C)CC(=O)CC(C)C | 1.4
CCCCC(=O)CC | 1.35
CC(C)COC(=O)C(C)C [Isobutyl isobutyrate] | 1.45
CCCC(=O)OCC [Ethyl butyrate] | 1.5
CCOC(=O)CC(C)C [Ethyl isovalerate] | 1.5
CC(=O)CCC(C)C [Methyl isoamyl ketone] | 1.4
CCOCCC(=O)OCC [Ethyl ethoxy propionate] | 1.45
CC(=O)OCCC(C)C [Isoamyl acetate] | 1.5
CC(=O)CC(C)C [Methyl isobutyl ketone] | 1.3

Entry source: patent US5118392A
